- assayDetails: logP by HPLC on reversed-phase columns (EEC Directive 79/831 Annex V.A8)
- Type: physicochemical
- experimentalSetup: pH 2.7
endpointName: log p [b]
Respond using a number only.

molecule	log p [b]
Clc1cnc(Nc2cccc(C3OCCCS3)c2)nc1NC1CC1 (stereo not drawn)	2.1
CC1COC(c2cccc(Nc3ncc(C(F)(F)F)c(NC4CCC4)n3)c2)O1 (stereo not drawn)	3.51
FC(F)(F)c1cnc(Nc2cccc(C3OCCO3)c2)nc1NC1CC1	3.7
COCC1COC(c2cccc(Nc3ncc(Cl)c(NC4CC4)n3)c2)O1 (stereo not drawn)	2.21
OCC1COC(c2cccc(Nc3ncc(Cl)c(NC4CC4)n3)c2)O1 (stereo not drawn)	1.16
CC1CC1Nc1nc(Nc2cccc(C3(C)OCCO3)c2)ncc1Cl (stereo not drawn)	2.32
CC1COC(c2cccc(Nc3ncc(Cl)c(NC4CCC4)n3)c2)O1 (stereo not drawn)	2.2

In the following, a different molecule is considered.
Query: log p [b]; subject: O=[N+]([O-])c1ccccc1C1COC(c2cccc(Nc3ncc(Cl)c(NC4CC4)n3)c2)O1 (stereo not drawn)
2.89
